# key: entry, value: IC50
# assayed.system: Histamine H1 receptor (Cavia porcellus, UniProt P31389)
# Sequence (P31389 whole entry): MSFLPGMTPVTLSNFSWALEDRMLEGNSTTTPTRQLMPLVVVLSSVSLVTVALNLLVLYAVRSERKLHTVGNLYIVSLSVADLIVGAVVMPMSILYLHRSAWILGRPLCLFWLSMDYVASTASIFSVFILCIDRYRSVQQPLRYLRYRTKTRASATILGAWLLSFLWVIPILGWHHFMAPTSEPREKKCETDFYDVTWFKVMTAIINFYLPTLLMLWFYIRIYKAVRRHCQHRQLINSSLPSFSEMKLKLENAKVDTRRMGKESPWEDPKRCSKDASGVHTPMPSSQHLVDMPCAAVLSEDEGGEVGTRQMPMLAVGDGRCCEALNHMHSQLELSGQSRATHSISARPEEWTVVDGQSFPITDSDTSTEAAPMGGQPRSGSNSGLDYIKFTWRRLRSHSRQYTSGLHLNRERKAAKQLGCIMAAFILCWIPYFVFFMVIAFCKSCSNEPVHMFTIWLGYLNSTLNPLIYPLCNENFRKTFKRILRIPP
# method: Antihistaminic activity against Histamine H1 receptor was measured on isolated terminal part of guinea pig ileum
# Type: tissue-based
# conditions.used: read-out: I50 (converted)

[
  {
    "compound": "CCc1ccccc1NC(=O)CCN1CCN2Cc3[nH]c4ccccc4c3CC2C1 (stereo not given)",
    "unit.string": "nM",
    "IC50": 634
  },
  {
    "compound": "NN1CCN2Cc3[nH]c4ccccc4c3CC2C1 (stereo not given)",
    "unit.string": "nM",
    "IC50": 925
  },
  {
    "compound": "COc1ccccc1NC(=O)CCN1CCC(Cc2ccccc2)CC1",
    "unit.string": "nM",
    "IC50": 965
  },
  {
    "compound": "O=C(CCN1CCN2Cc3ccccc3CC2C1)Nc1ccccc1 (stereo not given)",
    "unit.string": "nM",
    "IC50": 1340
  },
  {
    "compound": "O=C(CCN1CCN2Cc3[nH]c4ccccc4c3CC2C1)Nc1ccccc1[N+](=O)[O-] (stereo not given)",
    "unit.string": "nM",
    "IC50": 1740
  }
]

* * *

# assayed.system: Histamine H1 receptor (Cavia porcellus)
# method: Antihistaminic activity against Histamine H1 receptor was measured on isolated terminal part of guinea pig ileum
# Assay type: tissue-based
# conditions.used: read-out: I50
pIC50: −log10 of the molar value.

[
  {
    "molecule": "COc1ccccc1NC(=O)CCN1CCC(Cc2ccccc2)CC1",
    "assayed.system": "Histamine H1 receptor (Cavia porcellus)",
    "pIC50": 6.02
  }
]

* * *

Each item that follows carries a reported IC50.
# assayed.system: Histamine H1 receptor (Cavia porcellus, UniProt P31389)
# method: Antihistaminic activity against Histamine H1 receptor was measured on isolated terminal part of guinea pig ileum
# Assay type: tissue-based
# conditions.used: read-out: I50 (converted)

[
  {
    "molecule": "O=[N+]([O-])N1CCN2Cc3[nH]c4ccccc4c3CC2C1 (stereo unspecified)",
    "IC50, nM": 375
  },
  {
    "molecule": "c1ccc2c3c([nH]c2c1)CN1CCNCC1C3 (stereo unspecified)",
    "IC50, nM": 535
  },
  {
    "molecule": "CN1CCN2Cc3[nH]c4ccccc4c3CC2C1 (stereo unspecified)",
    "IC50, nM": 283
  },
  {
    "molecule": "O=C(CCN1CCN2Cc3[nH]c4ccccc4c3CC2C1)Nc1ccccc1 (stereo unspecified)",
    "IC50, nM": 1600
  },
  {
    "molecule": "COc1ccccc1C(=O)NCCN1CCN2Cc3[nH]c4ccccc4c3CC2C1 (stereo unspecified)",
    "IC50, nM": 364
  },
  {
    "molecule": "ClN1CCN2Cc3[nH]c4ccccc4c3CC2C1 (stereo unspecified)",
    "IC50, nM": 206
  }
]
